Task for the reader: assign each of the following molecules its reported EC50.
- measured.on: Cannabinoid receptor 1 (Homo sapiens, UniProt P21554)
- Sequence (P21554 whole entry): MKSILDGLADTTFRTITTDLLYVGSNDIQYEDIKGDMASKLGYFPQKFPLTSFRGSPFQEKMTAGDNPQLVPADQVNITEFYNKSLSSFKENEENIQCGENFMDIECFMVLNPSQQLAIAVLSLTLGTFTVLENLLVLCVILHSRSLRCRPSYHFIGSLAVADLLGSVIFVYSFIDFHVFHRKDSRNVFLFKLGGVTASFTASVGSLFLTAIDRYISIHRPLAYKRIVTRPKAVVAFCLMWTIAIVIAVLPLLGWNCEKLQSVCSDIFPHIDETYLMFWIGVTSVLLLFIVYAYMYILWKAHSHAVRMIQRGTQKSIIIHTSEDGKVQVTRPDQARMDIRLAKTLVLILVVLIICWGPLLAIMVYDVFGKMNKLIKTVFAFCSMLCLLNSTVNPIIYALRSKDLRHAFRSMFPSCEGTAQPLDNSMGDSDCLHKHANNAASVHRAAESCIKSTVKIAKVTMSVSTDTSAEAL
- protocol.text: Positive allosteric modulator activity at human CB1R expressed in CHO cells assessed as enhanced binding of [3H]CP55,940 after 60 mins by liquid scintillation spectrometric analysis
- Assay type: cell-based
Numbers only, in nM.

CCc1c(C(=O)NCCc2ccc(N3CCCCC3)cc2)[nH]c2ccc(Cl)cc12; 83

Please find the next molecule below.
q: Could you share which EC50 value was measured for `CCc1c(C(=O)NCCc2ccc(N3CCCCC3)cc2)[nH]c2ccc(N=C=S)cc12` ?
a: 19.6

---

- measured.on: Cannabinoid receptor 1 (Homo sapiens)
- protocol.text: Negative allosteric modulator activity at human CB1R expressed in CHO-K1 cells assessed as effect on CP55,940-induced inhibition of forskolin-induced cAMP accumulation preincubated for 30 mins followed by CP55,940 addition measured for 30 mins by HitHunter assay relative to control
- Type: functional, cell-based
Record form. Attribute: Emax. Fill in for each entry.
Numbers only, in %.

The following molecules have reported results that may help.
[N-]=[N+]=Nc1ccc(NC(=O)Nc2cccc(-c3cccc(N4CCCC4)n3)c2)cc1; 103
CCc1c(C(=O)NCCc2ccc(N3CCCCC3)cc2)[nH]c2ccc(Cl)cc12; 78.1
O=C(Nc1ccc(N=C=S)cc1)Nc1cccc(-c2cccc(N3CCCC3)n2)c1; 78.2

Please state Emax for every molecule in the list that follows.
1. O=C(Nc1ccc(Cl)cc1)Nc1cccc(-c2cccc(N3CCCC3)n2)c1
2. CCc1c(C(=O)NCCc2ccc(N3CCCCC3)cc2)[nH]c2ccc(N=[N+]=[N-])cc12

a:
1: 115; 2: 87.1
